Molecular target: Cytochrome P450 2C19 (Homo sapiens, UniProt P33261)
Sequence (P33261 whole entry): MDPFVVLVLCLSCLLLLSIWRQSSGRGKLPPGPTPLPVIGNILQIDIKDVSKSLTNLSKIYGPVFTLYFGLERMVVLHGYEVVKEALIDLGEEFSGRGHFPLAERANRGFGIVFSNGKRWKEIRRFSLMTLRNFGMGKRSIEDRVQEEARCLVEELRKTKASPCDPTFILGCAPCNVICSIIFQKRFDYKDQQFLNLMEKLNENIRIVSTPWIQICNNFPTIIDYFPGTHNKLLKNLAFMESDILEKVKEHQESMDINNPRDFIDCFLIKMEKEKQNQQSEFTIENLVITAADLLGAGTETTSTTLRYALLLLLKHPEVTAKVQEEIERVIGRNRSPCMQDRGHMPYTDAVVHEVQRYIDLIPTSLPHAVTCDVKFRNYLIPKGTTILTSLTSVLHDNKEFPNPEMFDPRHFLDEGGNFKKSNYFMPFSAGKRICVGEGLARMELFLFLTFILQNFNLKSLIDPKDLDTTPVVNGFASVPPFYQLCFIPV
Assay: Cytochrome panel assay with activity outcomes. Panel member name: p450-cyp2c19 Compounds with AC50 equal or less than 10 uM are considered active
Format: functional
Details: read-out: AC50
readout_type: AC50

[[record]]
molecule = "NC(=O)CNC(=O)[C@@H]1CC2(CC(c3ccccc3)=NO2)CN1C(=O)c1ccc(Br)cc1 (stereo not given in full)"
measured_value = "39.8 µM (inconclusive)"

[[record]]
molecule = "Cc1s/c(=N\\C(=O)c2ccco2)n(C)c1-c1ccc(F)cc1"
measured_value = "3.55 µM (inconclusive)"

[[record]]
molecule = "Cc1cc(C(F)F)n2ncc(C(=O)NCc3ccccc3C(F)(F)F)c2n1"
measured_value = "6.31 µM (inconclusive)"

[[record]]
molecule = "COc1ccc(C2CC(C(F)(F)F)n3nc(C(=O)N(C)Cc4cn(C)nc4C)c(Cl)c3N2)cc1 (stereo not given)"
measured_value = "17.8 µM (inconclusive)"

[[record]]
molecule = "CN(Cc1ccco1)c1cc(-c2cccnc2)ncn1"
measured_value = "20 µM (inconclusive)"


Origin of values: ChEMBL document CHEMBL1201862
